The measured values listed here are drawn from patent US9421237B2.

Tested on: Bel-7402 human hepatocarcinoma cell
Assay: Preliminary anti-tumor screening in vitro, SRB method
Type: cell-based
Parameters: key: +++: inhibition rates at three doses are greater than 50%; ++: inhibition rates at two doses are greater than 50%; +: inhibition rate at one dose is greater than 50%
Settings: Bel-7402, SRB, number of doses with inhibition > 50%
measuredParameter: Test results

INSERT INTO measurements (linenotation, result) VALUES
  ('CC(C)C[C@H](NC(=O)[C@H](Cc1ccc(O)cc1)NC(=O)[C@H](Cc1ccccc1)NC(=O)c1cnccn1)B(O)O', '+'),
  ('CC(C)C[C@H](NC(=O)[C@H](Cc1ccccc1)NC(=O)[C@H](Cc1ccc2ccccc2c1)NC(=O)c1cnccn1)B(O)O', '+'),
  ('CC(C)C[C@H](NC(=O)[C@H](Cc1ccc2ccccc2c1)NC(=O)[C@H](CC(C)C)NC(=O)c1cnccn1)B(O)O', '++');

* * *

Target: 20S proteasome extracted from rat liver, chymotryptic-like (CT-L) activity (Rattus norvegicus, UniProt P18421+P28075)
Construct: 20S proteasome extracted from rat liver
Experiment: Proteasome inhibition, chymotryptic-like (CT-L) activity, fluorescent peptide Suc-leu-leu-Val-Tyr-AMC
Conditions: rat liver 20S proteasome, 37° C., 1 h
Item-by-item account of pIC50
Recall that pIC50 is obtained by taking minus log10 of the concentration measured in molar.

Requested field: pIC50. Item: CC(C)C[C@H](NC(=O)[C@H](Cc1ccc2ccccc2c1)NC(=O)[C@H](CC(C)C)NC(=O)c1cnccn1)B(O)O
10.10

Requested field: pIC50. Item: CC(C)C[C@H](NC(=O)[C@H](CC(C)C)NC(=O)[C@H](Cc1ccc2ccccc2c1)NC(=O)c1cnccn1)B1OC2CC3C[C@@H](C3(C)C)[C@]2(C)O1 (stereo partly drawn)
9.46

Requested field: pIC50. Item: CC(C)C[C@H](NC(=O)[C@H](CC(C)C)NC(=O)[C@H](Cc1ccc2ccccc2c1)NC(=O)c1cnccn1)B(O)O
9.66

* * *

Test system: HL-60 human leukemia cell
Assay: Preliminary anti-tumor screening in vitro, MTT method
Assay type: cell-based
Details: Homo sapiens; HL-60, MTT, 0.05 μM; read-out: Inhibition rate %
Item-by-item account of inhibition at 0.05 µM
Remember to put the unit after the number in your answer.

Reference set (3 entries):
INSERT INTO results (compound, measuredparameter, result) VALUES
  ('CC(C)C[C@H](NC(=O)[C@H](Cc1ccccc1)NC(=O)[C@H](Cc1ccc(O)cc1)NC(=O)c1cnccn1)B(O)O', 'inhibition at 0.05 µM', '-21.1%'),
  ('CC(C)C[C@H](NC(=O)[C@H](Cc1ccc2ccccc2c1)NC(=O)[C@H](Cc1ccccc1)NC(=O)c1cnccn1)B1OC2CC3C[C@@H](C3(C)C)[C@]2(C)O1 (stereo partly drawn)', 'inhibition at 0.05 µM', '-5.06%'),
  ('CC(C)C[C@H](NC(=O)[C@H](Cc1ccccc1)NC(=O)[C@H](Cc1ccc2ccccc2c1)NC(=O)c1cnccn1)B(O)O', 'inhibition at 0.05 µM', '3.58%');

Requested field: inhibition at 0.05 µM. Item: CC(C)C[C@H](NC(=O)[C@H](Cc1ccc2ccccc2c1)NC(=O)[C@H](Cc1ccccc1)NC(=O)c1cnccn1)B(O)O
5.68%

Requested field: inhibition at 0.05 µM. Item: CC(C)C[C@H](NC(=O)[C@H](Cc1ccc2ccccc2c1)NC(=O)[C@H](CC(C)C)NC(=O)c1cnccn1)B1OC2CC3C[C@@H](C3(C)C)[C@]2(C)O1 (stereo partly drawn)
-19.9%

Requested field: inhibition at 0.05 µM. Item: CC(C)C[C@H](NC(=O)[C@H](Cc1ccccc1)NC(=O)[C@H](Cc1ccc2ccccc2c1)NC(=O)c1cnccn1)B1OC2CC3C[C@@H](C3(C)C)[C@]2(C)O1 (stereo partly drawn)
21.1%

* * *

System: BGC-823 human gastric cancer cell
Assay: Preliminary anti-tumor screening in vitro, SRB method
Type: cell-based
Parameters: key: +++: inhibition rates at three doses are greater than 50%; ++: inhibition rates at two doses are greater than 50%; +: inhibition rate at one dose is greater than 50%
Details: BGC-823, SRB, number of doses with inhibition > 50%
measuredParameter: Test results

Reference set (5 entries):
INSERT INTO measurements (molecule, result) VALUES
  ('CC(C)C[C@H](NC(=O)[C@H](Cc1ccc2ccccc2c1)NC(=O)[C@H](Cc1ccccc1)NC(=O)c1cnccn1)B(O)O', '+++'),
  ('CC(C)C[C@H](NC(=O)[C@H](Cc1ccccc1)NC(=O)[C@H](Cc1ccc2ccccc2c1)NC(=O)c1cnccn1)B1OC2CC3C[C@@H](C3(C)C)[C@]2(C)O1 (stereo partly drawn)', '+++'),
  ('CC(C)C[C@H](NC(=O)[C@H](Cc1ccc2ccccc2c1)NC(=O)[C@H](Cc1ccc2ccccc2c1)NC(=O)c1cnccn1)B1OC2CC3C[C@@H](C3(C)C)[C@]2(C)O1 (stereo partly drawn)', '+++'),
  ('CC(C)C[C@H](NC(=O)[C@H](CC(C)C)NC(=O)[C@H](Cc1ccc2ccccc2c1)NC(=O)c1cnccn1)B(O)O', '+++'),
  ('CC(C)C[C@H](NC(=O)[C@H](CC(C)C)NC(=O)[C@H](Cc1ccc2ccccc2c1)NC(=O)c1cnccn1)B1OC2CC3C[C@@H](C3(C)C)[C@]2(C)O1 (stereo partly drawn)', '++');

Pending molecule:
Requested field: Test results. Item: CC(C)C[C@H](NC(=O)[C@H](Cc1ccc(O)cc1)NC(=O)[C@H](Cc1ccccc1)NC(=O)c1cnccn1)B(O)O
+

* * *

Test system: HL-60 human leukemia cell
Experiment: Preliminary anti-tumor screening in vitro, MTT method
Type: cell-based
Settings: Homo sapiens; HL-60, MTT, 0.5 μM; read-out: Inhibition rate %
Item-by-item account of inhibition at 0.5 µM
Report as a plain number; the unit % is understood.

INSERT INTO results (compound, measuredparameter, resultnumber) VALUES
  ('CC(C)C[C@H](NC(=O)[C@H](Cc1ccc2ccccc2c1)NC(=O)[C@H](CC(C)C)NC(=O)c1cnccn1)B1OC2CC3C[C@@H](C3(C)C)[C@]2(C)O1 (stereo partly drawn)', 'inhibition at 0.5 µM', 81.9),
  ('CC(C)C[C@H](NC(=O)[C@H](Cc1ccc2ccccc2c1)NC(=O)[C@H](Cc1ccc2ccccc2c1)NC(=O)c1cnccn1)B(O)O', 'inhibition at 0.5 µM', 85.7);

Pending compound:
Param readout= inhibition at 0.5 µM; system= HL-60 human leukemia cell; entry= CC(C)C[C@H](NC(=O)[C@H](Cc1ccc2ccccc2c1)NC(=O)[C@H](Cc1ccccc1)NC(=O)c1cnccn1)B(O)O ; returns value.
87.8

* * *

System: HL-60 human leukemia cell
Test: Preliminary anti-tumor screening in vitro, MTT method
Type: cell-based
Details: Homo sapiens; HL-60, MTT, 0.05 μM; read-out: Inhibition rate %
measuredParameter: inhibition at 0.05 µM (%)
Report as a plain number; the unit % is understood.

Reference set (5 entries):
INSERT INTO measurements (molecule, measuredparameter, resultnumber) VALUES
  ('CC(C)C[C@H](NC(=O)[C@H](CC(C)C)NC(=O)[C@H](Cc1ccc2ccccc2c1)NC(=O)c1cnccn1)B1OC2CC3C[C@@H](C3(C)C)[C@]2(C)O1 (stereo partly drawn) [Compound 5m]', 'inhibition at 0.05 µM', 11.2),
  ('CC(C)C[C@H](NC(=O)[C@H](Cc1ccc2ccccc2c1)NC(=O)[C@H](Cc1ccc2ccccc2c1)NC(=O)c1cnccn1)B1OC2CC3C[C@@H](C3(C)C)[C@]2(C)O1 (stereo partly drawn) [Compound 5h]', 'inhibition at 0.05 µM', 11.4),
  ('CC(C)C[C@H](NC(=O)[C@H](Cc1ccc2ccccc2c1)NC(=O)[C@H](Cc1ccc2ccccc2c1)NC(=O)c1cnccn1)B(O)O [Compound 6h]', 'inhibition at 0.05 µM', 13.6),
  ('CC(C)C[C@H](NC(=O)[C@H](CC(C)C)NC(=O)[C@H](Cc1ccc2ccccc2c1)NC(=O)c1cnccn1)B(O)O [Compound 6m]', 'inhibition at 0.05 µM', 4.61),
  ('CC(C)C[C@H](NC(=O)[C@H](Cc1ccc2ccccc2c1)NC(=O)[C@H](CC(C)C)NC(=O)c1cnccn1)B(O)O [Compound 6f]', 'inhibition at 0.05 µM', 1.26);

Pending molecule:
Requested field: inhibition at 0.05 µM. Item: CC(C)C[C@H](NC(=O)[C@H](Cc1ccc(O)cc1)NC(=O)[C@H](Cc1ccccc1)NC(=O)c1cnccn1)B(O)O [Compound 6c]
-16.1

* * *

Item-by-item account of IC50
Target: 20S proteasome extracted from rat liver, chymotryptic-like (CT-L) activity (Rattus norvegicus, UniProt P18421+P28075)
Construct: 20S proteasome extracted from rat liver
Test: Proteasome inhibition, chymotryptic-like (CT-L) activity, fluorescent peptide Suc-leu-leu-Val-Tyr-AMC
Details: rat liver 20S proteasome, 37° C., 1 h

INSERT INTO assay_data (linenotation, measuredparameter, result) VALUES
  ('CC(C)C[C@H](NC(=O)[C@H](Cc1ccc(O)cc1)NC(=O)[C@H](Cc1ccccc1)NC(=O)c1cnccn1)B(O)O', 'IC50', '0.395 nM'),
  ('CC(C)C[C@H](NC(=O)[C@H](Cc1ccccc1)NC(=O)[C@H](CC(C)C)NC(=O)c1cnccn1)B(O)O', 'IC50', '0.19 nM');

Requested field: IC50. Item: CC(C)C[C@H](NC(=O)[C@H](Cc1c[nH]c2ccccc12)NC(=O)[C@H](Cc1ccccc1)NC(=O)c1cnccn1)B(O)O
> 20 nM
